Tested on: Candida albicans
Assay: Anti-fungal activity against Candida albicans ATCC 90028 after 48 hrs by broth microdilution method
Format: functional
Settings: ATCC 90028, 48 h
testReadout: MIC (µg/mL)
Numbers only, in µg/mL.

Cl.O=C(OC(Cn1ccnc1)c1ccccc1)c1ccccc1 (centres undefined) ... 32
OC(Cn1cncn1)(Cn1cncn1)c1ccc(F)cc1F [FLUCONAZOLE] ... 0.25
CCCC(CCC)C(=O)OC(Cn1ccnc1)c1ccc(Cl)cc1.Cl (centres undefined) ... 128

Consider now this further molecule.
Sure, the documented MIC for C/C=C/C=C/C(=O)OC(Cn1ccnc1)c1ccccc1.Cl (centres undefined) is 32
